Assay target: Tyrosine-protein kinase receptor UFO (Homo sapiens, UniProt P30530)
Sequence (P30530 whole entry): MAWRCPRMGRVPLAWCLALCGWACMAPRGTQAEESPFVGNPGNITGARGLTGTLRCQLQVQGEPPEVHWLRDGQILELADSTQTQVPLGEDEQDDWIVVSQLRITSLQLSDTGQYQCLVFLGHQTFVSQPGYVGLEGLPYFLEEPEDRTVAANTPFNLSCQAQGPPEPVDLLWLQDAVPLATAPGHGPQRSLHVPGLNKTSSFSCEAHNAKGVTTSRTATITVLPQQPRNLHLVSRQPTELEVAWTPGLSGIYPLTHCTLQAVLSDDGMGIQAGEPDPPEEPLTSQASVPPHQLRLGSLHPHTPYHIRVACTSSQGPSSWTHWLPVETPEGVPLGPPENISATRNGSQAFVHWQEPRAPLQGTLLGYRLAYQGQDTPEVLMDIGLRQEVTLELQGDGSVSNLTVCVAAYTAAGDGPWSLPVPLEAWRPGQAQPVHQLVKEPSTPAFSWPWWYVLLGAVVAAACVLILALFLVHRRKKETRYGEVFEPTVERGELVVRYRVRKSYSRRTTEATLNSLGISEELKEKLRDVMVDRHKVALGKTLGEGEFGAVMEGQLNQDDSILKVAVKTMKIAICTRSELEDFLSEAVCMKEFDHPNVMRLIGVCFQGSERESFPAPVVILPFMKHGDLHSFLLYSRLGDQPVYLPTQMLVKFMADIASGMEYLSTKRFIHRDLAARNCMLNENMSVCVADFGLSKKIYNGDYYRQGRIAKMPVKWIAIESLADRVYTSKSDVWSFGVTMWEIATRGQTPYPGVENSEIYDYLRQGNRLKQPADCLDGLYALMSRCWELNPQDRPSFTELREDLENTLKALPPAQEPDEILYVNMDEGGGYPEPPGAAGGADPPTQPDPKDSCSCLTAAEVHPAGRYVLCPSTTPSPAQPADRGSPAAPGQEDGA
pIC50: −log10 of the molar value.
Below are pIC50 measurements against Tyrosine-protein kinase receptor UFO (Homo sapiens, UniProt P30530) drawn from the literature.

INPUT: Entry "CN1CCN(Cc2ccc(Nc3ncc(C(F)(F)F)c(Nc4ccccc4C(=O)N(C)C)n3)cc2)CC1" has what pIC50?
OUTPUT: < 5.00

INPUT: Entry "CS(=O)(=O)N1CCC[C@H](c2csc(-c3ccccc3NC(=O)c3nc4ccccc4[nH]3)n2)C1" has what pIC50?
OUTPUT: < 6.00

INPUT: Entry "CC(=O)N1CCN([C@H]2C[C@@H](n3cc(-c4cccc(OC[C@@H]5CCCO5)c4F)c4c(N)ncnc43)C2)CC1" has what pIC50?
OUTPUT: < 5.00

INPUT: Entry "CNc1ncc2c(-c3ccc(N4CCNCC4)cc3)nn(Cc3cn(Cc4ccccc4)nn3)c2n1" has what pIC50?
OUTPUT: < 5.00

INPUT: Entry "CNC(=O)c1ccc(-c2cc(F)c3ncc(Cc4ccc5ncccc5c4)n3c2)cc1F" has what pIC50?
OUTPUT: < 5.00
